Test system: wheat
Test: wheat field test, crop selectivity, greenhouse spray at 4 leaf stage
Type: in vivo
Settings: 8 g/mu; sprayed at 4 leaf stage; 4 weeks after treatment
quantity-kind: Wheat (activity level, crop damage)

Asked: Note down Wheat (activity level, crop damage) recorded for CCOc1c(C(=O)Oc2c(C(=O)c3ccc(C(F)(F)F)c(N4CCCCC4=O)c3Cl)c(C3CC3)nn2C)cnn1C
Given back: 0

====

Test system: wheat
Test: post-emergence stage experiment, crop (Table 1)
Assay type: in vivo
Settings: post-emergence spray at 4-5 leaf stage, 250 g/ha active ingredient with 450 kg/ha water, rated after 3 weeks in greenhouse
Text: The activity level standard of harmful plant destruction (i.e. growth control rate) is as follows: The above described growth control rate is fresh weight control rate. Monocotyledonous and dicotyledonous weed seeds and main crop seeds (i.e. wheat, corn, rice, soybean, cotton, oilseed, millet and sorghum.) were put into a plastic pot loaded with soil. Then covered with 0.5-2 cm soil, the seeds were allowed to grow in good greenhouse environment. […]
quantity-kind: effect on crop, Wheat (level)

Reference set (5 entries):
# molecular-string, effect on crop, Wheat (level)
data = [
    ("Cn1ncc(C(=O)c2ccc(C(F)(F)F)c(N3CCCCCC3=O)c2Cl)c1O", 0),
    ("Cn1cc(C(=O)Oc2c(C(=O)c3ccc(C(F)(F)F)c(-n4cccn4)c3Cl)c(C3CC3)nn2C)cn1", "2 (Level 2: 5%-20% growth control rate)"),
    ("CCOc1c(C(=O)Oc2c(C(=O)c3ccc(C(F)(F)F)c(N4CCCCC4=O)c3Cl)c(C)nn2C)cnn1C", 0),
    ("CC(=O)N(C)c1c(C(F)(F)F)ccc(C(=O)c2c(C)nn(C)c2O)c1Cl", 0),
    ("Cc1nn(C)c(O)c1C(=O)c1ccc(C(F)(F)F)c(N)c1Cl", 0),
]

Asked: Could you please provide reported effect on crop, Wheat (level) for CCOc1c(C(=O)Oc2c(C(=O)c3ccc(C(F)(F)F)c(N4CCCC4=O)c3Cl)cnn2C)cnn1C ? Thanks!
Given back: 2 (Level 2: 5%-20% growth control rate)
